Some compounds, each annotated with its measured IC50.
Target: Recombinant human PI3Kγ (full length human PI3K p110γ) (Homo sapiens, UniProt P48736)
Construct: full length human PI3K p110γ fused with a His6-tag at the C-terminus; His6 (C); purchased ALEXIS BIOCHEMICALS #201-055-C010; host or cells: S. frugiperda 9 insect cells
Sequence (P48736 whole entry, the tested form may be a part): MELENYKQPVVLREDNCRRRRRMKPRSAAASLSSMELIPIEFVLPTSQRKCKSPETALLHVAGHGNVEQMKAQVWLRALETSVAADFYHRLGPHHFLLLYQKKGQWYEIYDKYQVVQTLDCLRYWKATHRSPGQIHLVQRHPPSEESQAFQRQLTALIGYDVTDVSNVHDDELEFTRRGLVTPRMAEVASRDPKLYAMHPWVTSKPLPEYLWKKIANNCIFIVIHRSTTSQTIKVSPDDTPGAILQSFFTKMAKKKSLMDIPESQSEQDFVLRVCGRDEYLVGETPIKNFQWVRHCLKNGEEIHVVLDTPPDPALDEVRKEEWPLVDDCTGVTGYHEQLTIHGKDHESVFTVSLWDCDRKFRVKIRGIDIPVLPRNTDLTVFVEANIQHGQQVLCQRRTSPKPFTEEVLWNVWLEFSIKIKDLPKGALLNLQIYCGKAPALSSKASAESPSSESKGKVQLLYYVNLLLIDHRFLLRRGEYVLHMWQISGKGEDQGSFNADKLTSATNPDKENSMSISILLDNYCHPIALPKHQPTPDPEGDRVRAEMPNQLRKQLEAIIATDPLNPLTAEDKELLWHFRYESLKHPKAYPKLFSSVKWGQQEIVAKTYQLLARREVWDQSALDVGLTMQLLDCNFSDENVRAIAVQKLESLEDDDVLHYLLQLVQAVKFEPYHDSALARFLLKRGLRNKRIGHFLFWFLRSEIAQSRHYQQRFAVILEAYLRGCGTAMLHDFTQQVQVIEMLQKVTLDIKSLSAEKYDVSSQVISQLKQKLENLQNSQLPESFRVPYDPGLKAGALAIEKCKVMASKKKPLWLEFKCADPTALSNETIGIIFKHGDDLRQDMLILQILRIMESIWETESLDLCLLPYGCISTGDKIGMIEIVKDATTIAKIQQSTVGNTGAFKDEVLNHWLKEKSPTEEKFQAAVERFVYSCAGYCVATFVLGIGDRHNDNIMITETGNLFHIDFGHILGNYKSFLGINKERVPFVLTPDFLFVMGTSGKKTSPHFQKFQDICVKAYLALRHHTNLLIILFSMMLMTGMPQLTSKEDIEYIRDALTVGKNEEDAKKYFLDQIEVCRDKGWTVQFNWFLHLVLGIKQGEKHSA
Assay: Kinase assay of PI3Kγ (solid-phase lipid kinase assay)
Type: biochemical
Conditions: in vitro PI3K-γ inhibitory activity, class symbols; read-out: in vitro PI3K-gamma

Examples with their reported IC50 follow.
>>> df
                                chem_smiles  test_readout       measured
0  COc1ccc2c(c1OC)N=C(NC(=O)c1ccc(NC(C)=O)nc1)N1CCN=C21          IC50       < 100 nM
1  CN(C)/C=N/c1cncc(C(=O)NC2=Nc3ccccc3C3=NCCN23)c1          IC50  100 to 500 nM
2  COc1cccc2c1N=C(NC(=O)c1cccnc1Cl)N1CCN=C21          IC50       < 100 nM

Lab note: next compound to report on.
Input: // fetch IC50; item: COc1cc2c(cc1OC)C1=NCCN1C(NC(=O)c1ccc(NC(C)=O)nc1)=N2 ; system: Recombinant human PI3Kγ (full length human PI3K p110γ) (Homo sapiens, UniProt P48736)
Output: 100 to 500 nM

---

Target: Recombinant human PI3Kγ (full length human PI3K p110γ) (Homo sapiens, UniProt P48736)
Construct: full length human PI3K p110γ fused with a His6-tag at the C-terminus; His6 (C); purchased ALEXIS BIOCHEMICALS #201-055-C010; host or cells: S. frugiperda 9 insect cells
Assay: Kinase assay of PI3Kγ (solid-phase lipid kinase assay)
Assay type: biochemical
Conditions: in vitro PI3K-γ inhibitory activity, class symbols A-D; read-out: in vitro PI3K-gamma
pIC50: −log10 of the molar value.
Some compounds, each annotated with its measured pIC50.

Examples with their reported pIC50 follow.
>>> df
                                   compound                       experimental_system      measured
0  Cc1ccc(C(=O)NC2=Nc3ccccc3C3=NCCN23)cc1 [Example 2-218]  Recombinant human PI3Kγ (full length human PI3K p110γ) (Homo sapiens, UniProt P48736)        < 5.70
1  O=C(NC1=Nc2ccccc2C2=NCCN12)c1csnn1 [Example 2-307]  Recombinant human PI3Kγ (full length human PI3K p110γ) (Homo sapiens, UniProt P48736)  5.70 to 6.30
2  COc1cc2c(cc1OC)C1=NCCN1C(NC(=O)c1ccccc1)=N2 [Example 2-342]  Recombinant human PI3Kγ (full length human PI3K p110γ) (Homo sapiens, UniProt P48736)  5.70 to 6.30

Input: Tell me measured pIC50 for CN(C)c1ccc2c(c1)C1=NCCN1C(NC(=O)c1cccs1)=N2 [Example 2-346] please.
Output: < 5.70

Input: Tell me measured pIC50 for O=C(NC1=Nc2ccccc2C2=NCCN12)c1ccccc1[N+](=O)[O-].O=C(O)C(F)(F)F [Example 2-251] please.
Output: < 5.70

---

test readout: melting point

Input: Tell me measured melting point for Cl.O=C(NC1=Nc2cc(OCCO)ccc2C2=NCCN12)c1cccnc1 [Example 2-198] please.
Output: 249 °C (dec.)

Input: Tell me measured melting point for CN(C)c1ccc(C(=O)NC2=Nc3ccccc3C3=NCCN23)cn1.Cl [Example 2-283] please.
Output: 311 °C (dec.)

---

test readout: melting point (°C)

Examples with their reported melting point follow.
>>> df
                                   compound   test_readout  value_unit  measured
0     O/C(=C\C1=Nc2ccccc2C2=NCCN12)C(F)(F)F  melting point          °C       240
1  Cl.O/C(=C\C1=Nc2cc(C(F)(F)F)ccc2C2=NCCN12)c1cccnc1  melting point          °C       321

(a) O=C(NC1=Nc2cccc(Cl)c2C2=NCCN12)c1cccnc1
(b) O/C(=C\c1nc2ccccc2c2nccn12)c1cccs1 [Example 3-1]
Input: Hi there! Just curious which has the higher melting point between a and b . Indicate your choice by writing its label.
Output: a

---

Some compounds, each annotated with its measured melting point.

Examples with their reported melting point follow.
>>> df
                                   compound   test_readout       measured
0  O/C(=C\C1=Nc2ccccc2C2=NCCN12)c1csc2ccccc12 [Example 1-180]  melting point  220 to 225 °C
1  CN(C)c1ccc2c(c1)C1=NCCN1C(NC(=O)c1cccs1)=N2 [Example 2-346]  melting point         272 °C
2  O=C(NC1=Nc2c(F)cccc2C2=NCCN12)c1cccnc1 [Example 2-99]  melting point         243 °C
3  Cl.O=C(NC1=Nc2ccc(-c3ccco3)cc2C2=NCCN12)c1cccnc1 [Example 2-97]  melting point  298 to 299 °C

Lab note: next compound to report on.
Input: Tell me measured melting point for CC(=O)Nc1ccc(C(=O)NC2=Nc3ccccc3C3=NCCN23)cn1.Cl [Example 2-152] please.
Output: 312 °C (dec.)

---

Biological target: Recombinant human PI3Kγ (full length human PI3K p110γ) (Homo sapiens)
Construct: full length human PI3K p110γ fused with a His6-tag at the C-terminus; His6 (C); purchased ALEXIS BIOCHEMICALS #201-055-C010; host or cells: S. frugiperda 9 insect cells
Test: Kinase assay of PI3Kγ (solid-phase lipid kinase assay)
Assay type: biochemical
Settings: in vitro PI3K-γ inhibitory activity, class symbols A-D; read-out: in vitro PI3K-gamma
test readout: IC50

In [3]: df
Out[3]:
                                   compound  test_readout        measured
0  CCC(=O)NC1=Nc2cc(OC)c(OC)cc2C2=NCCN12 [Example 2-344]          IC50       > 2000 nM
1  Cc1cc(C)cc(C(=O)NC2=Nc3ccccc3C3=NCCN23)c1 [Example 2-219]          IC50       > 2000 nM
2  O=C(NC1=Nc2ccccc2C2=NCCN12)c1ccc(-n2cccn2)cc1 [Example 2-270]          IC50       > 2000 nM
3  Cc1cnc(C(=O)NC2=Nc3ccccc3C3=NCCN23)cn1 [Example 2-294]          IC50  500 to 2000 nM
4  COc1ccc(C(=O)NC2=Nc3ccccc3C3=NCCN23)cc1OC.Cl [Example 2-238]          IC50   100 to 500 nM
5  O=C(NC1=Nc2ccccc2C2=NCCN12)c1csc([N+](=O)[O-])c1 [Example 2-305]          IC50       > 2000 nM
6  Cc1ccc(C(=O)NC2=Nc3ccccc3C3=NCCN23)c(Cl)n1 [Example 2-290]          IC50   100 to 500 nM
7  O=C(NC1=Nc2ccccc2C2=NCCN12)c1ccccn1 [Example 2-276]          IC50  500 to 2000 nM

Input: Tell me measured IC50 for O=C(NC1=Nc2ccccc2C2=NCCN12)c1cccc(Cl)c1.O=C(O)C(F)(F)F [Example 2-228] please.
Output: 500 to 2000 nM

Input: Tell me measured IC50 for N#CCOc1ccc2c(c1)C1=NCCN1C(NC(=O)c1cccnc1)=N2 [Example 2-213] please.
Output: 100 to 500 nM

---

Biological target: PI3Kβ (heterocomplex of p110β and GST-p85α) (UniProt Q9Z1L0)
Assay: Isozyme selectivity test: kinase assay of PI3Kβ
Format: biochemical
Details: activity class of IC50; read-out: In vitro PI3K-β inhibitory activity
Counter-ions that a name gives are not always drawn.
test readout: IC50

Examples with their reported IC50 follow.
>>> df
                                   molecule       measured
0  COC(=O)CCCOc1ccc2c(c1OC)N=C(/C=C(\O)c1cccnc1)N1CCN=C21 [Example 1-5]    0.5 to 2 µM
1  COc1c(OCCCC(=O)N2CCOCC2)ccc2c1N=C(/C=C(\O)c1cccnc1)N1CCN=C21 [Example 1-8]  0.1 to 0.5 µM
2  COc1c(O)ccc2c1N=C(/C=C(\O)c1cccnc1)N1CCN=C21 [Example 1-4, hydrochloride]    0.5 to 2 µM
3  COc1c(OCCCC(=O)O)ccc2c1N=C(/C=C(\O)c1cccnc1)N1CCN=C21 [Example 1-6]  0.1 to 0.5 µM
4  COc1cc2c(cc1OC)C1=NCCN1C(/C=C(\O)c1cccnc1)=N2 [Example 1-1]    0.5 to 2 µM

Input: Tell me measured IC50 for O=C(NC1=Nc2cc(O)ccc2C2=NCCN12)c1cccnc1 [Example 2-5] please.
Output: 0.5 to 2 µM

Input: Tell me measured IC50 for O=C(NC1=Nc2ccccc2C2=NCCN12)c1cccnc1 [Example 2-1] please.
Output: 0.1 to 0.5 µM

Input: Tell me measured IC50 for CC(=O)Nc1ccc(C(=O)NC2=Nc3cc(N4CCOCC4)ccc3C3=NCCN23)cn1 [Example 2-3] please.
Output: 0.5 to 2 µM

Input: Tell me measured IC50 for O=C(NC1=Nc2cc(OCCn3cccc3)ccc2C2=NCCN12)c1cccnc1 [Example 2-6] please.
Output: 0.1 to 0.5 µM
